system: K4 kissing-loop RNA reporter; experiment: apparent KD of K4 kissing-loop reporter; higher = weaker reporter binding; details: Eterna round: R107; input ligand: arginine 13.2 mM
Collected apparent KD of K4 kissing-loop reporter values appear next to each entry.

| Residues | Study Target | apparent KD of K4 kissing-loop reporter (nM) |
| --- | --- | --- |
| UAAUAAUAAUGAUAAUAAUAAAGUGGUGGACGAGGACCGGUACGGCCGCCACUCGAAAAUGCAGUGAUGUUGUAAUACAAAUAAU [Exclusion - Tryptophan A (Freestyle 1)] | K4 kissing-loop RNA reporter | 203 |
| GUGCAGUGAUGUUGCACGAGGAAAGACGAUACCAGCCGUAAAUAAGGCCCUUGGCAGCGUAGGCUAGCAUAAAGUAUGCCAGUCU [Geleerra] | K4 kissing-loop RNA reporter | 112 |
| UCGCCAAAGUCGGCCGCCACUCCGGGCCCUAUAAAUGGGCGCAGUGAUGUUGCGGCUAGGCCUCUGAGGACCGGGACUUUGUAGA [Esenusza] | K4 kissing-loop RNA reporter | 0.509 |
| CCGACUGCAGGAAGGAGCGGCGGUUGGAGUGAUGUUCCGGGUAGUGAUGUUACCAAACUCCGCCAGGUAGGUCGCCUGUUGCUCG [Same State Arginine B GF10] | K4 kissing-loop RNA reporter | 112 |
| UCAUAUACCAGAAGGAGCGUGCAGGACGAAUUAAUCAUCGACCUUAGUGAUGUUAAGGACGCACAGGUAGGUCGCUGGUAUAUGA [Arg B SS t4] | K4 kissing-loop RNA reporter | 431 |
| AUUUAGACGAGUGAUGUUCGUGUUAUUACAGAGGAUAUGCGUAAUUGCAGAAGGCUGUAUUUAUAUAUGUUAUGUAGUUUUAAAA [whbob_Ex_FMNA__2th184] | K4 kissing-loop RNA reporter | 108 |
| AUUUGUUUAUGCGAUACCAGACUAAGCAGUGAUGUUGCUUUUAUUUUUGAAUUUUAAAUAGUCCCUUGGCAGCGCUAUGUCUGUA [#06 K4 Theophylline B Same State] | K4 kissing-loop RNA reporter | 200 |
| GUGGGCUCGGGAGGAUAUGAGUCUAGUGAUGUUAGGCGGUCCAUGCGCGUGGCGCGUUAUGCCCUUUUAGAAGGCCCGAGCCCUC [#2 Exclusion - FMN B Attempt #24 (HarryS)] | K4 kissing-loop RNA reporter | 68.8 |

###

Listing of recorded apparent KD of MS2 coat protein by entry.
tested on: MS2 coat protein; assay: apparent KD of MS2 coat protein; higher = weaker reporter binding; details: Eterna round: R107; input ligand: theophylline 20 uM

| Residues | Study Target | apparent KD of MS2 coat protein |
| --- | --- | --- |
| UGUAACAUGAGGAUCACCCAUGUGAGUGAUACCAGACUAGUAUUAGUCCCUUGGCAGCACGCUGGGCGAGUGUAUAGUCUAUGCG [Same State - Theophylline A (Freestyle 15)] | MS2 coat protein | 125 nM |
| CAGUGAGAACGAAGGAGCGCUGAAUGAUGUGGACAUGAGGAUCACCCAUGUUAAGUCCAAUGGCAGGUAGGUCGCGUAACACUAG [Same State - Arginine B] | MS2 coat protein | 11.9 nM |
| ACUUCAUGAGGUGAUACCAGCCAAUGACAUGAGGACAUGAGGAUCACCCAUGUUUAUGUAGGCCCUUGGCAGCAUUGUAACAUGA [Same State Theophylline B 4] | MS2 coat protein | 126 nM |
| AUGCGGUGCGGAAGGAGCGAGUUUGCCUAUUACAUGAGGAUCACCCAUGUGGGUAAUGGGACUCAGGUAGGUCGCCGUUGUCGCA [Same State Arginine B GF 28] | MS2 coat protein | 77.9 nM |
| ACGGAUCGGAAACGAUCCGCGGCUAGGGUGCGAGGACCGGUACGGCCGCCACUCGGGUAACAUGAGGAUCACCCAUGUCUGAUUU [ETA NP+V+V2 #14] | MS2 coat protein | 116 nM |
| UCGCUCUGGGUGAGUUCCGGAGAUGUGGAAGGAGCGCUCGAAAGAGCAGGUAGGUCGCCAACGGACAUGAGGAUCACCCAUGUAC [Same State - Arginine A (Freestyle 21)] | MS2 coat protein | 76.1 nM |

###

test system: K4 kissing-loop RNA reporter; assay: apparent KD of K4 kissing-loop reporter; higher = weaker reporter binding; details: Eterna round: R107; input ligand: FMN 200 uM
Reported Endpoint: apparent KD of K4 kissing-loop reporter (µM)

| Residues | Reported Endpoint | Unit Info | Value |
| --- | --- | --- | --- |
| AAAACGCUGUGAAUAACACAGCGAAAUUCGCGAGGACCGGUACGGCCGCCACUCGCUAACUGCGAGUGAUGUUCGAUAAUAAAAU [Mat - Mod of OpenEnded 3 - D3] | apparent KD of K4 kissing-loop reporter | µM | 0.166 |
| AAAAUAAUCCAGUGAUGUUGGUUUCCAGAUACCAGCGACGAAAGUCGCCCUUGGCAGCUGUGGACGUACAAAAUAAGUACGUCCU | apparent KD of K4 kissing-loop reporter | µM | 0.318 |
| UGGAGUUGACGAAAAGUCAACUCCGGAGAAGGAGCGGACGAAAGUCCAGGUAGGUCGCUCCCUACCAGUGAUGUUGGUACUGAAA | apparent KD of K4 kissing-loop reporter | µM | 0.244 |
| AGCGGCCAGUCGGCCGCCACUCCAGGCAGUGAUGUUGCUAAGUUUCUACUAGAGUGAUGUUCUAAGAGGACCGGGACUGACGUAU [Exclusion Tryptophan B Gf 8] | apparent KD of K4 kissing-loop reporter | µM | 0.178 |

###

// values below are reported apparent KD of K4 kissing-loop reporter
test system: K4 kissing-loop RNA reporter; test: apparent KD of K4 kissing-loop reporter; higher = weaker reporter binding; conditions: Eterna round: R107; input ligand: tryptophan 2.4 mM;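 note: bound reporter read as fluorescence of individual clusters on recovered sequencing chips by microscopy, with normalized cluster intensities fitted with a binding model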
Reported Endpoint: apparent KD of K4 kissing-loop reporter (nM)

| Residues | Value |
| --- | --- |
| GGGUUUGCCGGAAGGAGCGCACUAUGGAGUGAUGUUCCAUGACCGCACAGCUUGCGGUCAGUGCAGGUAGGUCGCCGGUAACGUU [Enatbeve] | 194 |
| UAAUAUACGAGUGAUGUUCGUUAUUUAUCAGAGGAUAUGCUUAAAUGCAGAAGGCUGUUUUUCUAAUUGAUAUUAAAUUUUUUUA [JR_Nu_ExcFMNA_Sub028] | 63.3 |
| CACUCGGUAUCAGAUACCAGACUAACGAUACCGAGUGUAUCGGGUAGUGAUGUUACCAUAGUCCCUUGGCAGCUGAUAUACCAUA [Theo B SS t9] | 223 |

###

tested on: MS2 coat protein; test: apparent KD of MS2 coat protein; higher = weaker reporter binding; conditions: Eterna round: R107; input ligand: theophylline 20 uM
Listed here: items and their measured apparent KD of MS2 coat protein.

| Residues | apparent KD of MS2 coat protein (nM) |
| --- | --- |
| AUCGUACCUGAUGAUACCAGCAUGUGCUCGUAACAUGAGGAUCACCCAUGUGAUCAGUGAUGCCCUUGGCAGCAUGAUCGGUACA [Same State - Theophylline B (Freestyle 16)] | 49.2 |
| UUCGUAUUGUCGGCCGCCACUGCAACAUGAGGAUCACCCAUGUAAGAAUGGUUGUAAAUAUAUUACAGGACCGGGACAAUAGUAA [JR_ExcTryptoB_Sub018] | 24.1 |
| GUGGGACAUGAGGAUCACCCAUGUGACGAUACCAGUCAAUUGAUGGACCCUUGGCAGCGUUGGUAUUGCGGGUAGGCGAGAUAAG [theeternabot_sameState_MS2_Theo_A_3] | 60.2 |
| CGGCCCUCACUUGAGGAUCACCCAAGUGAUACCAGCCUGGAAACAGGCCCUUGGCAGCACUAGGUCAUCAAAGAUGACCAAGCCG [TheoAX 28 #OpenEnded #AlternativeMS2] | 26 |
| GCUACACAGGACCGUACUAAGGAUUCGCCUCGAGGACCGGUACGGCCGCCACUCGUUGCGCGACAUGAGGAUCACCCAUGUGUUC [theeternabot_exclusion_MS2_Trp_A_33] | 48.3 |
| GCACCAGGUACGGAUACCAGAGCAAGCCAAAUGAGUGAACUUGAGGAUCACCCAAGUUUGCUCCCUUGGCAGCCGUACCUGGUGC [ETB NP+V+V2 #12 Diff Apt, +-Same Structure] | 11.4 |

###

Listing of entries alongside the reported apparent KD of MS2 coat protein.
system: MS2 coat protein; assay: apparent KD of MS2 coat protein; designed switch direction (-1 OFF switch, 1 ON switch): 1; higher = weaker reporter binding; conditions: Eterna round: R95; input ligand: microRNA oligo, concentration not stated
Reported Endpoint: apparent KD of MS2 coat protein (µM)

| Residues | Study Target | Reported Endpoint | Value |
| --- | --- | --- | --- |
| CGUCGCUGUCGAGAGGAUAUGCGGUGAUGGACAUGAGGAUCACCCAUGUUAGCGAUAGUAUCACGGUAGAAGGCUCUUACGACUG [Soteed Omei mod 26] (puzzle: Same State 2) | MS2 coat protein | apparent KD of MS2 coat protein | 0.0267 |
| AUAAGUUUGAUGCUCGUCUCUUCGUACAGACAUGAGGAUCACCCAUGUAGUCGGGAAGUAGCCCGGCCAGUAUGACC [Usraisqu] (puzzle: Sensor for hsa-mir-208a) | MS2 coat protein | apparent KD of MS2 coat protein | 0.0405 |
| CAAGGACGGACACAGGAUAUCCUCACCUACACAUGAGGAUCACCCAUGUCAUAAAAGAUGGUGCAGGAGAAGGGUGCGGCGUCUA [Bibesoxe] (puzzle: Same State 2) | MS2 coat protein | apparent KD of MS2 coat protein | 0.00962 |
| CUCAAACAUGAGGAUCACCCAUGUGUUGUCGUGGGAGGAUAUCCCGGUUCGGUGGCGUCGGGAGAAGGCCUAUGUC [× ×•×ª×• ×ž×“×™× ×” × ×—×ª-17] (puzzle: Same State 1) | MS2 coat protein | apparent KD of MS2 coat protein | 0.0548 |
| UCUUGGUUUUUGCUCGUUUUUUGUGUUGAACAUGAGGAUCACCCAUGUAUUGUACGGUCCGAUUUAAUAAUGGUCCG [JMF 22] (puzzle: Sensor for hsa-mir-208a) | MS2 coat protein | apparent KD of MS2 coat protein | 0.0144 |
| AGUCUACGGUGACGUAGACAGUGGUGCGUACAUGAGGAUCACCCAUGUCAUGUGAGAGUUACUUGUUCGUCUUGAGC [SENSOR #4] (puzzle: Sensor for hsa-mir-208a) | MS2 coat protein | apparent KD of MS2 coat protein | 0.0217 |
